Target: mushroom tyrosinase
Experiment Notes: Inhibition of mushroom tyrosinase (tyrosine to DOPAchrome, OD475)
Experimental Endpoint: IC50 (nM)

INSERT INTO measurements (molecule, observed_result) VALUES
  ('O=C(NO)c1ccccc1O [SHA, Salicylhydroxamate]', 60);
